Assay: Anti-inflammatory activity: carragenin edema test
Format: in vivo
Settings: rat, in vivo, ip; 100 mg/kg i.p., borate buffer pH 7
experimental.endpoint: mortality at 24 h
Please answer in the form of a number followed by its unit of measurement.

Query block: Requested read-out: mortality at 24 h. Entry: C[C@@H]1O[C@@H](Oc2c(-c3ccc(O)c(O)c3)oc3cc(O)cc(O)c3c2=O)[C@@H]2OC3(CCCCC3)O[C@@H]2[C@H]1O [No. 7]
Result block: 20%

---

Tested on: capillary resistance
Assay: Capillaroprotecting effects: capillary resistance
Assay type: in vivo, male OFA EOPS rats
Conditions: 100 mg/kg i.p.
I'd be grateful if you could share measured capillary resistance, effect observed for these entries.
Could you give me the number in u cm Hg/h? Just the number is fine.

Query block: Sample `C[C@@H]1O[C@@H](OC[C@H]2O[C@@H](Oc3c(-c4ccc(O)c(O)c4)oc4cc(O)cc(O)c4c3=O)[C@H](O)[C@@H](O)[C@@H]2O)[C@@H]2OC3(CCCCC3)O[C@@H]2[C@H]1O` — what was its capillary resistance, effect observed?
Result block: 25.5

Query block: Fill blank: measured capillary resistance, effect observed of the compound `C[C@@H]1O[C@@H](OC[C@H]2O[C@@H](Oc3c(-c4ccc(O)c(O)c4)oc4cc(O)cc(O)c4c3=O)[C@H](O)[C@@H](O)[C@@H]2O)[C@@H]2OC(C)(C)O[C@@H]2[C@H]1O` is ____.
Result block: 21.5

Query block: Report capillary resistance, effect observed for `C[C@@H]1O[C@@H](Oc2c(-c3ccc(O)c(O)c3)oc3cc(O)cc(O)c3c2=O)[C@@H]2OC(C)(C)O[C@@H]2[C@H]1O` please.
Result block: 34.75

Query block: Request the reported capillary resistance, effect observed associated with `CC1(C)OC[C@H]2O[C@@H](Oc3c(-c4ccc(O)c(O)c4)oc4cc(O)cc(O)c4c3=O)[C@H](O)[C@@H](O)[C@@H]2O1`
Result block: 32.25

---

Target: Aldose Reductase (Bos taurus, UniProt P16116)
Construct: The enzyme is extracted from beef eye lenses; from tissue; host or cells: beef eye lenses
Assay: Inhibition of aldose reductase in vitro (enzyme from beef eye lenses, glyceraldehyde substrate)
Assay type: biochemical
Details: 10^-6 mole/l, in DMF solution; read-out: percentages of inhibition (aldose reductase)
Kindly return Yes if reported inhibition at 1 µM is no lower than 20%; return No if it is lower.

Query block: Given C[C@@H]1O[C@@H](OC[C@H]2O[C@@H](Oc3c(-c4ccc(O)c(O)c4)oc4cc(O)cc(O)c4c3=O)[C@H](O)[C@@H](O)[C@@H]2O)[C@@H]2OC(C)(c3ccc(Cl)cc3)O[C@@H]2[C@H]1O (stereo partly shown) , state whether its inhibition at 1 µM is at least 20%.
Result block: Yes

Query block: Confirm if inhibition at 1 µM reported for the compound `C[C@@H]1O[C@@H](OC[C@H]2O[C@@H](Oc3c(-c4ccc(O)c(O)c4)oc4cc(O)cc(O)c4c3=O)[C@H](O)[C@@H](O)[C@@H]2O)[C@@H]2OC3(CCCCC3)O[C@@H]2[C@H]1O` is 20% or above.
Result block: No

Query block: API: above_or_equal(metric=inhibition at 1 µM, cutoff=20%) for item `CC1(C)OC[C@H]2O[C@@H](Oc3c(-c4ccc(O)c(O)c4)oc4cc(O)cc(O)c4c3=O)[C@H](O)[C@@H](O)[C@@H]2O1`
Result block: No

Query block: Threshold query (inhibition at 1 µM >= 20%) on COc1ccc(C2O[C@@H]3[C@@H](O)[C@H](C)O[C@@H](OC[C@H]4O[C@@H](Oc5c(-c6ccc(O)c(O)c6)oc6cc(O)cc(O)c6c5=O)[C@H](O)[C@@H](O)[C@@H]4O)[C@@H]3O2)cc1 (stereo partly shown)
Result block: No

Query block: Can Cc1ccc(C2(C)O[C@@H]3[C@@H](O)[C@H](C)O[C@@H](OC[C@H]4O[C@@H](Oc5c(-c6ccc(O)c(O)c6)oc6cc(O)cc(O)c6c5=O)[C@H](O)[C@@H](O)[C@@H]4O)[C@@H]3O2)cc1 (stereo partly shown) be said to have inhibition at 1 µM at or above 20%?
Result block: Yes

Query block: Tell me whether inhibition at 1 µM is at least 20% here: C[C@@H]1O[C@@H](OC[C@H]2O[C@@H](Oc3c(-c4ccc(O)c(O)c4)oc4cc(O)cc(O)c4c3=O)[C@H](O)[C@@H](O)[C@@H]2O)[C@@H]2OC3(O[C@@H]2[C@H]1O)C1CC2CC(C1)CC3C2 (stereo partly shown)
Result block: Yes

Query block: Is reported inhibition at 1 µM greater than or equal to 20% here: `C[C@@H]1O[C@@H](Oc2c(-c3ccc(O)c(O)c3)oc3cc(O)cc(O)c3c2=O)[C@@H]2OC3(CCCCC3)O[C@@H]2[C@H]1O`
Result block: Yes

---

Test: i.p. toxicity in Swiss EOPS mice, mortality at 14 days
Details: mouse, in vivo, ip; 1500 mg/kg i.p., DMSO solution at 1/2; read-out: percentages of mortality at the end of 14 days
experimental.endpoint: mortality at 336 h (%)
Just the number please, in %, no unit attached.

Query block: Please give the measured mortality at 336 h for this molecule: `CC1(C)OC[C@H]2O[C@@H](Oc3cc4ccc(=O)oc4cc3O)[C@H](O)[C@@H](O)[C@@H]2O1`
Result block: 20

---

Biological target: COMT (Rattus norvegicus)
Construct: The enzyme is extracted from rat liver; from tissue; host or cells: rat liver
Sequence (P22734 44-264): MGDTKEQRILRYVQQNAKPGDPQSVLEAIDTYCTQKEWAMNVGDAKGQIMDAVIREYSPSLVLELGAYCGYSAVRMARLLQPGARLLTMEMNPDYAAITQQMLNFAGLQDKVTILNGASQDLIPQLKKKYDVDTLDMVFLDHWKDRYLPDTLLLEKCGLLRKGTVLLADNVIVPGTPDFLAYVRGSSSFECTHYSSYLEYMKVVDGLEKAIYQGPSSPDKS
Experiment: Inhibition of COMT in vitro (enzyme from rat liver, 4-nitrocatechol substrate)
Assay type: biochemical
Details: 10^-5 mole/l, in dimethylsulfoxide solution; read-out: percentages of inhibition (COMT)
Description: Inhibition of COMT in vitro The enzyme is extracted from rat liver by the method described by Axelrod et al, J. Biol. Chem., 233, 702(1958); its activity is measured in the presence of S-adenosyl methionine and using as substrate 4-nitrocatechol by the method described by Lee et al, J. Pharm. Sci., 66(7), 986(1977). The quantity of 4-nitrocatechol consumed was determined spectrophotometrically at 520 nm in alkaline medium.
experimental.endpoint: inhibition at 10 µM (%)
Dear colleague, please return just the value in %, with no unit written.

Query block: I have this compound here, C[C@@H]1O[C@@H](OC[C@H]2O[C@@H](Oc3c(-c4ccc(O)c(O)c4)oc4cc(O)cc(O)c4c3=O)[C@H](O)[C@@H](O)[C@@H]2O)[C@H](O)[C@H](O)[C@H]1O [Rutin, rutin, reference compound] , and I need its recorded inhibition at 10 µM.
Result block: 13

Query block: What does the record list as inhibition at 10 µM for COc1ccc(C2O[C@@H]3[C@@H](O)[C@H](C)O[C@@H](OC[C@H]4O[C@@H](Oc5c(-c6ccc(O)c(O)c6)oc6cc(O)cc(O)c6c5=O)[C@H](O)[C@@H](O)[C@@H]4O)[C@@H]3O2)cc1 (stereo partly shown) [No. 22] ?
Result block: 45

---

Molecular target: Aldose Reductase (Bos taurus)
Construct: The enzyme is extracted from beef eye lenses; from tissue; host or cells: beef eye lenses
Assay: Inhibition of aldose reductase in vitro (enzyme from beef eye lenses, glyceraldehyde substrate)
Type: biochemical
Conditions: 10^-5 mole/l, in DMF solution; read-out: percentages of inhibition (aldose reductase)
From the text: Inhibition of Aldose Reductase In Vitro The reoxidation of NADPH coupled to the enzymatic reaction was followed spectrophotometrically at 340 nm.
Would you mind labelling by inhibition at 10 µM? At or over 40% is yes, under is no.

Query block: Please indicate if the recorded inhibition at 10 µM for O=c1ccc2cc(O[C@@H]3O[C@@H]4COC5(CCCCC5)O[C@H]4[C@H](O)[C@H]3O)c(O)cc2o1 [No. 16] meets or exceeds 40%.
Result block: no

Query block: Does the molecule C[C@@H]1O[C@@H](Oc2c(-c3ccc(O)c(O)c3)oc3cc(O)cc(O)c3c2=O)[C@@H]2OC(C)(C)O[C@@H]2[C@H]1O [No. 3] have recorded inhibition at 10 µM that is 40% or more?
Result block: yes

Query block: Does C[C@@H]1O[C@@H](OC[C@H]2O[C@@H](Oc3c(-c4ccc(O)c(O)c4)oc4cc(O)cc(O)c4c3=O)[C@H](O)[C@@H](O)[C@@H]2O)[C@@H]2OC3(CCCCC3)O[C@@H]2[C@H]1O [No. 6] have a reported inhibition at 10 µM of at least 40%?
Result block: yes

Query block: Reported inhibition at 10 µM reaches at least 40% for CC1(C)OC[C@H]2O[C@@H](Oc3cc4ccc(=O)oc4cc3O)[C@H](O)[C@@H](O)[C@@H]2O1 [No. 15] ?
Result block: no

Query block: Assess whether reported inhibition at 10 µM for C[C@@H]1O[C@@H](OC[C@H]2O[C@@H](Oc3c(-c4ccc(O)c(O)c4)oc4cc(O)cc(O)c4c3=O)[C@H](O)[C@@H](O)[C@@H]2O)[C@@H]2OC(C)(c3ccc(Cl)cc3)O[C@@H]2[C@H]1O (stereo partly drawn) [No. 37] sits at 40% or higher.
Result block: yes
